The measurements presented in this section are drawn from patent US20070037817A1.

targetOrSystem: human mGluR5d (Homo sapiens)
Construct: expressed in transfected cells; host or cells: GHEK (HEK cells expressing a glutamate transporter) for the IP3 assay
Sequence (P41594 21-942 isoform P41594-3 limits assumed): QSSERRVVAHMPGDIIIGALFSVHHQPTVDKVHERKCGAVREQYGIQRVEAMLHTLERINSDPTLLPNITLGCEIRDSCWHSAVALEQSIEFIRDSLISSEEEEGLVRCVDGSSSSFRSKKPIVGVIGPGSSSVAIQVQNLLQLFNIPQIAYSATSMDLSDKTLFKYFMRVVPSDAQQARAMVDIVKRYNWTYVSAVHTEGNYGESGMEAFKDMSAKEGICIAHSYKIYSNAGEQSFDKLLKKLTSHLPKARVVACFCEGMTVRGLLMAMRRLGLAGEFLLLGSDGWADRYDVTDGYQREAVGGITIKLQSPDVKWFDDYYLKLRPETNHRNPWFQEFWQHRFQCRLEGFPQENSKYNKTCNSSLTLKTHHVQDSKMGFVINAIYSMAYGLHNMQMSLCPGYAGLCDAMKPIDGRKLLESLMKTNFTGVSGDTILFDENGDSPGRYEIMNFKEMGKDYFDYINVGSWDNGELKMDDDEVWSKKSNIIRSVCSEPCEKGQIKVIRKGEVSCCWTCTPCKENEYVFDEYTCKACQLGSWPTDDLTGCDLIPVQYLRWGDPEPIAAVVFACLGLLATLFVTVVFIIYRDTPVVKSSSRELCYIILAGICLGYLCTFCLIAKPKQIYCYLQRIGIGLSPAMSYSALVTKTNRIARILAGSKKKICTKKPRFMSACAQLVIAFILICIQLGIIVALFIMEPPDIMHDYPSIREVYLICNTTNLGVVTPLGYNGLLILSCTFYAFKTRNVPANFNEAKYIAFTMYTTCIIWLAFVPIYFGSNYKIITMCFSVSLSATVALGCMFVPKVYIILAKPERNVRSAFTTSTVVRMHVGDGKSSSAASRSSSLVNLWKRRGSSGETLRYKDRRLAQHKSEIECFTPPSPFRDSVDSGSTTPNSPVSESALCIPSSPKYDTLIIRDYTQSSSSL
assay: Functional assessment of mGluR5 antagonism in cell lines expressing mGluR5d (FLIPR [Ca2+]i mobilization assay / IP3 turnover assay; assay behind the values not specified)
Assay type: cell-based
condition: assays described herein (FLIPR or IP3), cells expressing human mGluR5d
Note to self: IC50 under 400 nM means rule met, ties and anything higher get rule not met.

[in] Quick check: IC50 of N#Cc1ccc(N2CCN3[C@@H](CC[C@H]3C#Cc3cccc(Cl)c3)C2)nc1 under 400 nM?
[out] rule not met

[in] Now the molecule N#Cc1cc(F)cnc1N1CCN2[C@@H](CCC[C@@H]2C#Cc2ccccn2)C1 (racemic)
[out] rule met

[in] Now the molecule COC(=O)c1cccnc1N1CCN2[C@@H](CC[C@@H]2C#Cc2cccc(Cl)c2)C1 (racemic)
[out] rule met

[in] Now the molecule N#Cc1nccnc1N1CCN2[C@@H](CC[C@@H]2C#Cc2nccs2)C1 (racemic)
[out] rule not met

[in] Now the molecule N#Cc1cccc(C#C[C@H]2CCC[C@H]3CN(c4ncccc4C#N)CCN32)c1 (racemic)
[out] rule met

[in] Now the molecule CCOC(=O)N1CCN2[C@@H](CC[C@H]2C#Cc2cccc(Cl)c2)C1
[out] rule met
